pIC50: −log10 of the molar value.
The entries that follow carry pIC50 values tested on human HIF-PHD2 (Homo sapiens, UniProt Q9GZT9), drawn from several published reports.
measurement-label: pIC50

Consider the reported pIC50 for these compounds:
compound: Cn1c(=O)c(C(=O)NCC(=O)O)c(O)c2cnc(-c3ccc4ccccc4c3)nc21
pIC50: 8.03

compound: CC(C)C(c1cccc(C(F)(F)F)c1)n1ncc2nc(-n3cc(C(=O)O)cn3)nc(O)c21 (centres unmarked)
pIC50: 7.00

compound: CC(C)(Cn1ncc2nc(-n3cc(C(=O)O)cn3)nc(O)c21)c1ccc(Cl)c(Cl)c1
pIC50: 6.68

a: O=C(O)c1cnn(-c2nc(O)c3nn(CC4CCN(c5ccc(C(F)(F)F)cn5)CC4)cc3n2)c1
b: O=C(O)c1cnn(-c2nc(O)c3c(cnn3CC3CCCCCCC3)n2)c1
c: COc1ccc(Cn2c3c(c(O)c(C(=O)NCC(=O)O)c2=O)CCOC3)cc1
Please give the order of these compounds when sorted by pIC50, largest value leading. // respond by listing labels in the order requested
a, c, b
(a: 7.77, c: 7.52, b: 6.96)

====

Assay read-out pIC50 on UniProt:Q9GZT9; records merged from the literature.
pIC50: −log10 of the molar value.
measurement-label: pIC50

// worked examples, pIC50 included
compound: C[C@H](c1ccccc1)n1ncc2nc(-n3cc(C(=O)O)cn3)nc(O)c21
numeric-readout: 7.18
//
compound: O=C(O)c1cnn(-c2nc(O)c3c(cnn3Cc3ccc(-c4cccc(C(F)(F)F)c4)cc3)n2)c1
numeric-readout: 7.96
//
compound: O=C(O)CNC(=O)c1c(O)c2c(n(Cc3cc(F)c(F)cc3F)c1=O)CCOC2
numeric-readout: 7.77
//
compound: Cc1nn([C@@H](C)c2ccc(F)c(F)c2)c2c(O)nc(-n3cc(C(=O)O)cn3)nc12
numeric-readout: 7.19
//
compound: CCC(CC)n1ncc2nc(-n3cc(C(=O)O)cn3)nc(O)c21
numeric-readout: 7.09
//
compound: Cn1c(=O)c(C(=O)NCC(=O)O)c(O)c2cnc(-c3ccc(C#N)cc3)nc21
numeric-readout: 8.39
//
compound: O=C(O)c1cnn(-c2nc(O)c3[nH]ncc3n2)c1
numeric-readout: 7.46
//
compound: O=C(O)c1cnn(-c2nc(O)c3c(cnn3CC3(COc4ccc(Cl)cc4)CC3)n2)c1
numeric-readout: 7.05

1: Cc1ccc(C(C)(C)Cn2ncc3nc(-n4cc(C(=O)O)cn4)nc(O)c32)cc1
2: CCC(c1ccc(F)c(F)c1)n1ncc2nc(-n3cc(C(=O)O)cn3)nc(O)c21 (centres unmarked)
3: O=C(N[C@@H](CO)C(=O)O)c1c(O)c2c(n(Cc3ccc(C(F)(F)F)cc3)c1=O)COC2
4: O=C(O)c1cnn(-c2nc(O)c3c(cnn3C(c3ccc(Cl)cc3)C3CC3)n2)c1 (single isomer, unassigned)
5: O=C(NCC(O)C(=O)O)c1ncc(C(=O)NC(c2ccccc2)c2ccccc2)c(O)n1 (centres unmarked)
Please list these in order of increasing pIC50. Thank you! Write the labels out in the order the request specifies.
1, 3, 2, 4, 5
(1: 6.62, 3: 6.96, 2: 7.44, 4: 7.92, 5: 9.05)

====

The entries that follow carry IC50 values tested on human HIF-PHD2 (Homo sapiens), drawn from several published reports.
measurement-label: IC50 (nM)

// known answers, use as guide
molecule: O=C(O)c1cnn(-c2nc(O)c3c(cnn3Cc3ccc(F)c(C(F)(F)F)c3)n2)c1
measurement-label: IC50
numeric-readout: 44
--
molecule: C[C@@H](C1CCC(C)(C)CC1)n1ncc2nc(-n3cc(C(=O)O)cn3)nc(O)c21
measurement-label: IC50
numeric-readout: 15
--
molecule: O=C(O)c1cnn(-c2nc(O)c3c(cnn3CCCOc3ccc(Cl)c4c3CCC4)n2)c1
measurement-label: IC50
numeric-readout: 14
--
molecule: CC(CNC(=O)c1ncc(C(=O)NC(C)(C)c2ccc(-c3ccc(F)cc3)cc2)c(O)n1)C(=O)O (single isomer, unassigned)
measurement-label: IC50
numeric-readout: 4.8
--
molecule: CC1CC(n2ncc3nc(-n4cc(C(=O)O)cn4)nc(O)c32)CC(C)(C)C1 (single isomer, unassigned)
measurement-label: IC50
numeric-readout: 42

A: O=C(O)CNC(=O)c1c(O)c2cccc(-c3ccccc3)c2oc1=O
B: Cn1c(=O)c(C(=O)NCC(=O)O)c(O)c2cnc(-c3cc4ccccc4[nH]3)nc21
Hi team, can someone confirm which has the larger IC50: A or B ? Thanks. Bench note: the answer is the label of the chosen record.
A
